Data origin: patent US20230158141A1

- TARGET_DESC: PD-1 (UniProt Q15116 25-167, limits assumed)
- Sequence (Q15116 25-167 limits assumed): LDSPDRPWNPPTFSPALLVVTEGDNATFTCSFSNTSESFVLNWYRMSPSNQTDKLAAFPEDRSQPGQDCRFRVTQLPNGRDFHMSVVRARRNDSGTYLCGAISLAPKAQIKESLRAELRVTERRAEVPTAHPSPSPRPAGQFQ
- ASSAY_INFO: ELISA, conjugate vs WT antibody
MEASURED_QUANTITY: binding activity (% of WT) (%)
Please respond with the number in % and leave the unit unwritten.

// below: answered binders
BINDER | MEASURED_QUANTITY | NUMERIC_VALUE
anti-PD-1 antibody 1 light chain G28C-R4-5 (antibody, human IgG4 S228P, kappa, V domains shown, R4-5 on Cys 28) VH: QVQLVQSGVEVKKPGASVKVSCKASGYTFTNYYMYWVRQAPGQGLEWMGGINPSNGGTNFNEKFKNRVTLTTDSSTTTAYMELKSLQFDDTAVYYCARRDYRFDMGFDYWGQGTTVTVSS VL: EIVLTQSPATLSLSPGERATLSCRASKCVSTSGYSYLHWYQQKPGQAPRLLIYLASYLESGVPARFSGSGSGTDFTLTISSLEPEDFAVYYCQHSRDLPLTFGGGTKVEIKR | binding activity (% of WT) | 108
anti-PD-1 antibody 1 light chain S35C-R4-1 (antibody, human IgG4 S228P, kappa, V domains shown, R4-1 on Cys 35) VH: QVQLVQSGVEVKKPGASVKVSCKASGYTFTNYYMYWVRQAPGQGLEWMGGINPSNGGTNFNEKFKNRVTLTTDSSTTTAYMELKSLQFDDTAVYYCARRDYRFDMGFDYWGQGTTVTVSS VL: EIVLTQSPATLSLSPGERATLSCRASKGVSTSGYCYLHWYQQKPGQAPRLLIYLASYLESGVPARFSGSGSGTDFTLTISSLEPEDFAVYYCQHSRDLPLTFGGGTKVEIKR | binding activity (% of WT) | 88.3
anti-PD-1 antibody 1 light chain S30C-R4-1 (antibody, human IgG4 S228P, kappa, V domains shown, R4-1 on Cys 30) VH: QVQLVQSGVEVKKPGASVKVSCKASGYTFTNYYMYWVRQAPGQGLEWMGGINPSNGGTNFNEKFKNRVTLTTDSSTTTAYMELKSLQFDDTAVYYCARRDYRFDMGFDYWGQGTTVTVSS VL: EIVLTQSPATLSLSPGERATLSCRASKGVCTSGYSYLHWYQQKPGQAPRLLIYLASYLESGVPARFSGSGSGTDFTLTISSLEPEDFAVYYCQHSRDLPLTFGGGTKVEIKR | binding activity (% of WT) | 86.9

Pending binder:
Request: // Input: anti-PD-1 antibody 1 light chain S60C-R4-1 (antibody, human IgG4 S228P, kappa, V domains shown, R4-1 on Cys 60) VH: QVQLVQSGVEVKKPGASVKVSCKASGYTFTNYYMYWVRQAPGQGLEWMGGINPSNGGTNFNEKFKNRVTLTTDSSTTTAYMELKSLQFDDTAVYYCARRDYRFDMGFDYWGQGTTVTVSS VL: EIVLTQSPATLSLSPGERATLSCRASKGVSTSGYSYLHWYQQKPGQAPRLLIYLASYLECGVPARFSGSGSGTDFTLTISSLEPEDFAVYYCQHSRDLPLTFGGGTKVEIKR . Output its binding activity (% of WT) only.
Result: 89.4
